- System: T-47D breast
- test_name: NCI-60 one-dose screen, 48 h
- experimental_context: 10 µM unless noted
- Description: Growth inhibition of the T-47D human tumor cell line is measured as a screen for anti-cancer activity. Cells are grown in 96 well plates and exposed to the test compound for 48 hours. Compounds are tested at a single concentration, which is 10^-5 M for most compounds. The reported endpoint is percent growth (GI% or GIPRCNT), where numbers from 0 - 100% represent growth inhibition, and numbers from -100% - 0 represent cell death. For example, a value of 40 represents 60% growth inhibition. […]
This is part of a sample that, as a whole, favours compounds with a hit. Of some 83,000 tested, about 20% had one in any assay. Calls of active or inactive are those of the source. The calls were made as follows: active = growth percent below 10; inactive = the rest.
Outcomes you can answer with include only these: 1 (yes) (active), 0 (no) (inactive)

Reference set (8 entries):
CCCCCCCC/C=C/CCCCCCCC1=NC(C)(C)CN1c1ccccc1 ... 0 (no)
CC1CCN(CCCCCOc2ccc3oc4ccc(Cl)cc4c(=O)c3c2)CC1 ... 0 (no)
COc1cc(C2CC(c3ccc(Cl)cc3)=NN2C=O)ccc1Oc1ccnc2cc(Cl)ccc12 (stereo not drawn) ... 0 (no)
Cc1ccc2c(C)c3c(ccc4ccccc43)c[n+]2c1 ... 1 (yes)
Nc1c(C(=O)Nc2cccc(Cl)c2)sc2nc3c(cc12)C(=O)CCC3 ... 0 (no)
CC(C)c1ccc(-c2cnc3nonc3n2)cc1 ... 0 (no)
N/C(=N\O)c1ncc(-c2ccc(C(F)(F)F)cc2)c(NC2CCCCCC2)n1 ... 1 (yes)
CCOC(=O)Cn1c(-c2nonc2NC(=O)c2ccccc2F)nc2ccccc21 ... 0 (no)

Can you look up the reported call for c1cc2c(cc1-c1cnc3nonc3n1)OCO2 for me? 0 (no)

For Cc1cc(N)cc(C)c1-c1c(Br)cc(N)cc1Br , which call appears in the assay record? 0 (no)

What outcome does the record of this test show for CCN(CC)CC(=O)Nc1c(C)cc(C(=O)NN)cc1C ? 0 (no)

# fetch the recorded call for C=C(C)[C@@H]1CC[C@]2(C(=O)NS(=O)(=O)c3ccccc3)CC[C@]3(C)[C@H](CC[C@@H]4[C@@]5(C)CC[C@H](OC(=O)NS(=O)(=O)c6ccccc6)C(C)(C)[C@@H]5CC[C@]43C)[C@@H]12 here 1 (yes)

Each compound tested received a call. Report the one for Clc1ccccc1CNc1c2ccccc2nc2ccccc12 . 0 (no)

---

- Tested on: HCC-2998 colon
- test_name: NCI-60 one-dose screen, 48 h (100 = growth as untreated, 0 = no growth, -100 = all killed)
- experimental_context: 10 µM unless noted
Compounds without any hit were thinned out: in the full panel of roughly 83,000, 20% have a hit.
Consider the following compounds and their measured growth readings.
Provide the reading as a plain figure in %.

Record excerpt, results attached:
Cc1cc(Nc2c3ccccc3nc3ccccc23)ccc1NS(C)(=O)=O ... 50.8
O/N=C/c1ccncc1 ... 102
O=P(O)(O)C(O)(Cc1cccnc1)P(=O)(O)O ... 119
Cc1cc([N+](=O)[O-])c(C)cc1N ... 102
CC(C)(C)[Si](C)(C)OC1[C@@H](O[Si](C)(C)C(C)(C)C)[C@@H](CNC(=O)NC(=O)NC(=O)CCl)O[C@H]1n1cnc2c(NC(=O)Nc3ccccc3)ncnc21 (some centres undefined) ... 75.5

Which growth value belongs to C#CCNc1nc(NCCNC(=O)CCl)nc(N(C)CCCCc2ccccc2)n1 ? 108

Query: growth; subject: COC(=O)C(Br)(C(=O)OC)C(Br)C(Br)C(Br)c1ccccc1 (centres undefined) 98.4

I would be grateful if you could share the reported growth for COc1cc(/C=C/c2cc(/C=C/c3ccc(O)c(OC)c3)n(C(=O)Nc3ccc(F)c(Cl)c3)n2)ccc1O . 9.75

Please look up its growth: Nc1c(C(=O)Nc2cccc(Cl)c2)sc2nc3c(cc12)C(=O)CCC3 8.27

What growth value was documented for this compound, O=C(c1ccc(OCCN2CCCCC2)cc1)c1c(-c2ccc(O)cc2)sc2cc(O)ccc12 ? 103

If you can, please state the reported growth value of COc1cccc(/C(C)=N/NC(=O)CSc2nc3ccccc3c(=O)n2CCc2ccc(S(N)(=O)=O)cc2)c1 . 69.1

growth lookup needed for CC1OC(n2c3ccccc3c3c4c(c5c6ccccc6[nH]c5c32)C(=O)N(CCN2CCOCC2)C4=O)CC(O)C1O (centres undefined) , thanks. 30
